# credit: patent US20260078122A1

# Tested Target: recombinant human Myt1 (full length PKMYT1) (Homo sapiens)
# Sequence (Q99640 1-499): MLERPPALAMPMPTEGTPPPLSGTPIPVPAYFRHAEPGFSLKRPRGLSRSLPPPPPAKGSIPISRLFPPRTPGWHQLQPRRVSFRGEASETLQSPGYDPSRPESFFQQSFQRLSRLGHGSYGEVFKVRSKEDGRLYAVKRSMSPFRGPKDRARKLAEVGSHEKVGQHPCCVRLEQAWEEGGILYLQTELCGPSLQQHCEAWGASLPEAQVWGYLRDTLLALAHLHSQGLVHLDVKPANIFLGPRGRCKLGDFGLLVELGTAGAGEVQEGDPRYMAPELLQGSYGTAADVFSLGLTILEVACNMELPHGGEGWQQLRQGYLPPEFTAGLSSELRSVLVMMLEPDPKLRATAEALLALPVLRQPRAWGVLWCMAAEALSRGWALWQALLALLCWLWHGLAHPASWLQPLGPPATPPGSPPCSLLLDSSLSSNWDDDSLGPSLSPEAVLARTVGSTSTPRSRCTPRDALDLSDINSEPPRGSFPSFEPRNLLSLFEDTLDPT
# Method Summary: ADP-Glo assay (Myt1 kinase activity)
# IC50 annotations
A number alone suffices; assume µM.

Cc1ncc(OCC(F)(F)F)c2c(-c3ccc(F)c4[nH]ncc34)c(N)c(=O)[nH]c12    0.0134
Cc1cc2[nH]c(=O)c(N)c(-c3ccc(F)c4[nH]ncc34)c2nc1C1CCN(C)CC1    0.0164
Cc1nc2c(-c3ccc(F)c4[nH]ncc34)c(N)c(=O)[nH]c2c(C)c1C    0.0167
Cc1cc2[nH]c(=O)c(N)c(-c3ccc(F)c4[nH]ncc34)c2nc1C1COC1    0.0119
Cc1c(C2CC2)nc2c(-c3ccc(F)c4[nH]ncc34)c(N)c(=O)[nH]c2c1C1CC1    0.0136

# input Item: Cc1c(OC(C)C)cnc2c(-c3ccc(F)c4[nH]ncc34)c(N)c(=O)[nH]c12 Test system: recombinant human Myt1 (full length PKMYT1) (Homo sapiens) Read-out: IC50 Value: ?
# output 0.0142
